Test System: Peroxisome proliferator-activated receptor alpha (Homo sapiens)
Sequence (Q07869 whole entry): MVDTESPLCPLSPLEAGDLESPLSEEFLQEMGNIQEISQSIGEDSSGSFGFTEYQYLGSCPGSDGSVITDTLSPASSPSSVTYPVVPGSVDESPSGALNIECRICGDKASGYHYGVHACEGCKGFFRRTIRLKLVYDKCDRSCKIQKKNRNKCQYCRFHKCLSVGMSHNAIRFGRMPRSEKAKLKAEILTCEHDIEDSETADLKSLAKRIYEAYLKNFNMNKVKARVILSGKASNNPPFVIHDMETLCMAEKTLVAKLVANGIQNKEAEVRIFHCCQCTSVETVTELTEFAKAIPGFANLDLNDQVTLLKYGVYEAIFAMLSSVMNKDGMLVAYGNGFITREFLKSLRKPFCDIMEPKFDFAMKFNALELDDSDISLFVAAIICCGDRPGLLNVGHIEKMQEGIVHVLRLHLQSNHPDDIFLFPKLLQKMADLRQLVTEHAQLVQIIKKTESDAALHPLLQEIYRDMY
Method Summary: Binding affinity to PPARalpha LBD (unknown origin) by surface plasmon resonance assay
pKd: −log10 of the molar value. Residues, ends and D or L forms follow the SMILES beside them.
Measurement Name: pKd

Compound	Recorded Result
N[C@@H](Cc1c[nH]c2ccccc12)C(=O)N[C@@H](CCC(=O)O)C(=O)O (H-Trp-Glu-OH)	3.92

----------
Test System: Peroxisome proliferator-activated receptor alpha (Homo sapiens)
Method Summary: Agonist activity at PPARalpha LBD (unknown origin) assessed as induction of PGC1alpha co-activator activity by TR-FRET analysis
pEC50: −log10 of the molar value. Residues, ends and D or L forms follow the SMILES beside them.

Molecule	Test System	pEC50
N[C@@H](Cc1c[nH]c2ccccc12)C(=O)N[C@@H](CCC(=O)O)C(=O)O (H-Trp-Glu-OH)	Peroxisome proliferator-activated receptor alpha (Homo sapiens)	4.08
